Can you tell me GI50 for the items I'm about to list?
System: SNB-75
Experiment: NCI tumour cell line growth inhibition, 48 h
The source made the active and inactive calls. Cut-off read from the data, not from the text of the source: active = GI50 up to about 1.1 µM and inactive = higher.

Requested read-out: GI50. Entry: COc1ccc(CCc2ccc(O)c(C(=O)O)c2)cc1OC
79.6 µM (inactive)

For COC(=O)c1cc2c3c(ccc2[nH]1)N(C(=O)c1cc2c4c(ccc2[nH]1)N(C(=O)c1cc2c5c(ccc2[nH]1)N(C(N)=O)CC5)CC4)CC3 , what is its reported GI50?
2.11 µM (inactive)

Could you share which GI50 value was measured for O=C1C(Br)=C(Br)C(=O)c2ccc(=O)ccc21 ?
57.9 µM (inactive)

###

Test system: NCI-H460
Assay: NCI tumour cell line growth inhibition, 48 h
The source made the active and inactive calls. Cut-off read from the data, not from the text of the source: active = GI50 up to about 1.1 µM and inactive = higher.
Please state which outcome applies, choosing from yes (1) (active), no (0) (inactive)

I'd appreciate the recorded outcome for COC(=O)C1=NC(=S)NC(c2ccccc2)C1c1nc2ccccc2o1 (stereo not drawn) from this test.
no (0)

What did the test return for N#C/C(=C\c1ccc2ccccc2c1)c1ccccc1 ?
no (0)

Field: outcome | Entry: COc1cc2c(cc1OCc1ccccc1)NC(=O)[C@@H]1CCCN1C2=O
no (0)

Hi, sorry to bother you, what did the test record for COc1cc(C2c3cc4c(cc3OC(NC3CCCCC3)C2C)OCO4)cc(OC)c1OC (stereo not drawn) ?
yes (1)

Query: recorded result category for CCOC(=O)CC[C@H](NC(=O)[C@H](N)Cc1ccc(N(CCCl)CCCl)cc1)C(=O)OCC in this test
no (0)

What was the test verdict on CC(C)[C@H]1CO[C@@H]2O[C@H](C)CC(=O)N21 ?
no (0)

Just curious, what result did Oc1cc(O)c2c(c1)O[C@H](c1cc(O)c(O)c(O)c1)[C@H](O)C2 [EPIGALLOCATECHIN] get here?
no (0)

What classification did Cc1ccc(C2(O)c3ccccc3C(=O)N(C)C2(O)c2ccc(C)cc2)cc1 (stereo not drawn) end up with in this test?
no (0)

###

System: OVCAR-4
Assay: NCI tumour cell line growth inhibition, 48 h
Activity calls are given as the source filed them. Rule as the data show it: active = GI50 up to about 1.1 µM and inactive = higher.
Exercise: state measured GI50 for each of the compounds provided.

Notebook entry, OVCAR-4 assay: GI50 of Nc1nc(-c2ccc3ccccc3c2)cc(-c2cc(-c3ccc4ccccc4c3)nc(N)n2)n1 = ?
> 100 µM (inactive)

Form entry - test system: OVCAR-4; read-out: GI50; compound: Cc1cc2ccccc2c[n+]1CC(O)C[n+]1cc2ccccc2cc1C
> 100 µM (inactive)

What reported GI50 corresponds to CCOC(=O)c1sc2c(c1O)c(=O)n(-c1ccccc1)c(=S)n2-c1ccccc1 on OVCAR-4?
> 100 µM (inactive)

Hello, I am looking for reported GI50 with OVCAR-4 for Cc1cccc(N2C(=O)/C(=C/c3ccc(N(CCC#N)CCC#N)cc3C)N=C2c2cc([N+](=O)[O-])ccc2Cl)c1 . Could you help?
> 100 µM (inactive)

Lab request: please report GI50 under test system OVCAR-4 for O=c1oc(-c2ccc(O)c(O)c2)cc2cccc(O)c12
20.1 µM (inactive)

// map NCc1ccc(C(=O)O)cc1 to recorded GI50 (system: OVCAR-4)
> 100 µM (inactive)

Quick check: GI50 on OVCAR-4, item Cc1ccc(/N=N/c2ccc(N(CCC#N)CCC#N)cc2C)c(Br)c1 ?
20.4 µM (inactive)

Fill in the recorded GI50 for this compound, with OVCAR-4 as test system: Cc1ccc(C(=O)C(C)N)cc1 (configuration not stated)
> 100 µM (inactive)

Look up GI50 with OVCAR-4 for this compound: CC1=C2c3ccccc3N(C(=O)/C=C/C(=O)O)[C@H]2[C@H]2C(=O)OC(=O)[C@H]2C1
> 10 µM (inactive)

Request: GI50, test system OVCAR-4, entry O=c1/c(=C\c2ccccc2)sc2n1C(c1ccccc1)C1(O)CCCCC1N=2 (configuration not stated)
50.6 µM (inactive)

Query the reported GI50 for OVCAR-4; item: CC(=O)OCC1OC(n2c3c(c(-c4ccc(Cl)cc4)c(C#N)c2=S)CCCC3)C(OC(C)=O)C(OC(C)=O)C1OC(C)=O (configuration not stated)
25.5 µM (inactive)

Hi! What's the reported GI50 for O=C1c2ccccc2C(=O)c2c(NC3CCCCC3)ccc(Nc3ccc(S(=O)(=O)O)cc3)c21 on OVCAR-4?
33.9 µM (inactive)
